# system-tested: T1, recombinant canine β NGF (canine, UniProt Q29074 110-229 (pig entry))
# T1 construct: also called canine NGF
# T1 chain: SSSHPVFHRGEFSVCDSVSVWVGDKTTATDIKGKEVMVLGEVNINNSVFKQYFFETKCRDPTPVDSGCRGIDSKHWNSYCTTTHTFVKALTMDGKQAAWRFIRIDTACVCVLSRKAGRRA
# assay-remarks: SPR (Biacore), mAb captured on goat anti-mouse IgG Fc, canine NGF injected; Expt 1

>  <binder>
PR-1254981 (antibody, mouse IgG1, V domains shown, also called 14A9; ML130-14A9.5B12) VH: EVQLVESGGGAVKPGGSLTLSCAASGFTFSNHYMYWVRQTPEKRLEWVASISDGGAYTFYPDTVKGRFTISRDNVNNNLYLQMRHLKSEDTAMYYCTREESANNGFAFWGQGTLVTVSA VL: DVLMTQTPLSLPVSLGDQASISCRSSQSILHSNGNTYLEWYLQKPGQSPNLLIYRVSNRFSGVPDRFSGSGSGTDFTLKISRVEAEDLGVYYCFQGAHVPFTFGSGTKLEIKR

>  <kon>
8.67e+06 M⁻¹ s⁻¹

$$$$
>  <binder>
PR-1254977 (antibody, mouse IgG1, V domains shown, also called 21D4; ML129-21D4.4A11) VH: EVQLQQSGAELVKPGASVKLSCTASGFNIKDTYIYWVKQRPEQGLEWIGRIDPANGNTIYASKFQGKASITADTSSNTAYMQLSSLTSGDTAVYYCAGYGYYAYWGQGTTLTVSS VL: DVVLTQTPLSLPVNIGDQASISCKSTKSLLNGDGFTYLDWYLQKPGQSPQLLIYLVSNRFSGVPDRFSGSGSGTDFTLKISRVEAEDLGVYYCFESNYLFTFGSGTKLEMKR

>  <kon>
> 1e+07 M⁻¹ s⁻¹

$$$$
>  <binder>
PR-1254972 (antibody, mouse IgG2b, V domains shown, also called 20B10; ML129-20B10.3F4) VH: EVHLVESGGGLVKPGGFLILSCAASGFTFSDYYMFWIRQTPGKRLEWVATISDGGSYTYYTDNVKGRFTISRDNVKNNLYLQMSHLKSADTAMYYCARDWSDSEGFAYWGQGTLVTVSA VL: DVLMTQTPLSLPVSLGDQASISCRSSQSIVQSNGNTYLEWYLQKPGQSPKLLIYKVSNRFSGVPDRFSGSGSGTDFTLKISRVEAEDLGVYYCFQGSHVPFTFGSGTKLEIKR

>  <kon>
> 1e+07 M⁻¹ s⁻¹

$$$$
